pIC50 listing for selected molecules.
target: MNK2 (Homo sapiens, UniProt Q9HBH9); construct: the open reading frames of human Mnk1 and Mnk2a were amplified from cDNA; experiment: Mnk2a in vitro kinase assay (indirect fluorescence polarization); settings: pre-activated GST-Mnk2a 2.5 nM, 20 μM ATP, 30 μM substrate peptide
Sequence (Q9HBH9 whole entry): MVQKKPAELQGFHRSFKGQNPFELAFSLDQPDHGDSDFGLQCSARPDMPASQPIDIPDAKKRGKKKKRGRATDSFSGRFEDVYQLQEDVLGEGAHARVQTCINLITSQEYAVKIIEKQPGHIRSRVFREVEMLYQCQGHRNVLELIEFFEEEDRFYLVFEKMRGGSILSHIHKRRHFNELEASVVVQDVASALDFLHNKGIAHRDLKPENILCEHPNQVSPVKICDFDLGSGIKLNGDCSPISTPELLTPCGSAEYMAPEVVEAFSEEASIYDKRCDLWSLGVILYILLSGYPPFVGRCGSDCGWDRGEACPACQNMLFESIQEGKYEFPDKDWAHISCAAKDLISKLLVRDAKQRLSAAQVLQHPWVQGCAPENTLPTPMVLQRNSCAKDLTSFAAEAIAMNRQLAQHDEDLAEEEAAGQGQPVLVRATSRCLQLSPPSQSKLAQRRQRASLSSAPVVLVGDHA
pIC50 here: minus log base 10 of the concentration, concentration in moles per litre.

Illustrative cases are given below, each with its answer.
molecule	study_target	pIC50
CNC(=O)CNC(=O)c1sc2ncnc(Nc3ccc(F)cc3O[C@H]3CC[C@H](OC)CC3)c2c1C	MNK2 (Homo sapiens, UniProt Q9HBH9)	7.70
Cc1c(C(N)=O)sc2ncnc(Nc3ccc(F)cc3O[C@H]3CC[C@@H](N(C)S(C)(=O)=O)CC3)c12	MNK2 (Homo sapiens, UniProt Q9HBH9)	5.23
Cc1c(C(=O)N[C@H]2C[C@@H]2N)sc2ncnc(Nc3ccc(F)cc3O[C@H]3CC[C@H](O)CC3)c12	MNK2 (Homo sapiens, UniProt Q9HBH9)	7.80
Cc1c(C(=O)NCCO)sc2ncnc(Nc3cccnc3O[C@H]3CC[C@H](N)CC3)c12	MNK2 (Homo sapiens, UniProt Q9HBH9)	7.72
CO[C@@H]1CCCC[C@H]1Oc1cc(F)ccc1Nc1ncnc2sc(C(N)=O)c(C)c12 [Example 249]	MNK2 (Homo sapiens, UniProt Q9HBH9)	8.22
Cc1c(C(=O)O)sc2ncnc(Nc3cccnc3O[C@H]3CC[C@H](N)CC3)c12	MNK2 (Homo sapiens, UniProt Q9HBH9)	7.96

Let us examine a further case.
Param item = `Cc1c(C(N)=O)sc2ncnc(Nc3ccc(F)cc3O[C@@H]3C[C@@H](O)[C@@H](O)C3)c12` ; retrieve measured pIC50. 8.10

---

target: MNK2 (Homo sapiens); construct: the open reading frames of human Mnk1 and Mnk2a were amplified from cDNA; test: Mnk2a in vitro kinase assay (indirect fluorescence polarization); details: pre-activated GST-Mnk2a 2.5 nM, 20 μM ATP, 30 μM substrate peptide
IC50 listing for selected molecules.
Answer with a number only, understood to be in µM.

Illustrative cases are given below, each with its answer.
molecule	study_target	IC50 [µM]
COC1CCCC(Oc2cc(F)ccc2Nc2ncnc3sc(C(=O)NCC4CNCCO4)c(C)c23)C1 (mixture of isomers) [Example 83]	MNK2 (Homo sapiens)	0.053
CO[C@H]1CCC[C@@H](Oc2cc(F)ccc2Nc2ncnc3sc(C(=O)NCCCO)c(C)c23)C1 (racemic)	MNK2 (Homo sapiens)	0.024
Cc1c(C(N)=O)sc2ncnc(Nc3ccc(F)cc3OC3CCC(=O)CC3)c12	MNK2 (Homo sapiens)	0.031

Let us examine a further case.
Param item = Cc1c(C(=O)NCCN2CCCCC2)sc2ncnc(Nc3ccc(F)cc3O[C@@H]3CCC[C@@H](O)C3)c12 (racemic) ; retrieve measured IC50. 0.023

---

Target: MNK2 (Homo sapiens, UniProt Q9HBH9)
Construct: the open reading frames of human Mnk1 and Mnk2a were amplified from cDNA; made in house; host or cells: E. coli BL21
Assay: Mnk2a in vitro kinase assay (indirect fluorescence polarization)
Format: biochemical
Conditions: pre-activated GST-Mnk2a 2.5 nM, 20 μM ATP, 30 μM substrate peptide
Protocol: Inhibitory potency of compounds against Mnk1, Mnk2a and other kinases was assessed with assays based on a format known to those skilled in the art as the indirect (competitive) fluorescence polarization. The assay detection system comprises a small fluorophore-labeled phospho-peptide (termed ligand) bound to a phospho-specific antibody. The product generated by the kinase reaction competes with the ligand for antibody binding. […]
quantity_measured: pIC50
pIC50 here: minus log base 10 of the concentration, concentration in moles per litre.

molecule	pIC50
Cc1c(C(=O)O)sc2ncnc(Nc3ccc(F)cc3O[C@H]3C[C@@H]4OCO[C@@H]4C3)c12 [Example 290]	8.10
CO[C@H]1CCC[C@@H](Oc2cc(F)ccc2Nc2ncnc3sc(C(=O)NCCCN4CCOCC4)c(C)c23)C1 (racemic) [Example 97]	7.62
CO[C@H]1CCC[C@@H](Oc2cc(F)ccc2Nc2ncnc3sc(C(=O)NCC#CCN)c(C)c23)C1 (racemic) [Example 91]	7.80
Cc1c(C(N)=O)sc2ncnc(Nc3ccc(F)cc3OC3CCC4(CC3)OCCO4)c12 [Example 19]	7.51

Request body: readout pIC50, system MNK2 (Homo sapiens, UniProt Q9HBH9), query CNC(=O)c1sc2ncnc(Nc3ccc(F)cc3O[C@H]3CC[C@H](NC(C)=O)C3)c2c1C [Example 235] . Return the value. 8.22

Request body: readout pIC50, system MNK2 (Homo sapiens, UniProt Q9HBH9), query CO[C@H]1CC[C@H](Oc2cc(F)ccc2Nc2ncnc3sc(C(=O)NCCCN4CCCC4=O)c(C)c23)CC1 [Example 279] . Return the value. 7.96

Request body: readout pIC50, system MNK2 (Homo sapiens, UniProt Q9HBH9), query COCCN[C@H]1CC[C@H](Oc2cc(F)ccc2Nc2ncnc3sc(C(N)=O)c(C)c23)CC1 [Example 24] . Return the value. 7.85

Request body: readout pIC50, system MNK2 (Homo sapiens, UniProt Q9HBH9), query CO[C@H]1CC[C@H](Oc2cc(F)ccc2Nc2ncnc3sc(C(=O)NCCCO)c(C)c23)CC1 [Example 195] . Return the value. 7.72

Request body: readout pIC50, system MNK2 (Homo sapiens, UniProt Q9HBH9), query Cc1c(C(N)=O)sc2ncnc(Nc3ccc(F)cc3O[C@H]3CC[C@H](NC(=O)OC(C)(C)C)C3)c12 [Example 228] . Return the value. 5.94

Request body: readout pIC50, system MNK2 (Homo sapiens, UniProt Q9HBH9), query Cc1c(C(=O)NCc2cnco2)sc2ncnc(Nc3ccc(F)cc3O[C@H]3CC[C@H](O)CC3)c12 [Example 162] . Return the value. 8.00

Request body: readout pIC50, system MNK2 (Homo sapiens, UniProt Q9HBH9), query CO[C@H]1CC[C@H](Oc2cc(F)ccc2Nc2ncnc3sc(C(=O)NCCCN4CCCCC4)c(C)c23)CC1 [Example 275] . Return the value. 8.00
